Reported % Blocking with 100 nM Ab values follow for various binders
- study.target: T1, hArtemin-MMH (human)
- T1 construct: also called hARTN.mmh; hARTN (A108-G220).mmh
- T1 chain: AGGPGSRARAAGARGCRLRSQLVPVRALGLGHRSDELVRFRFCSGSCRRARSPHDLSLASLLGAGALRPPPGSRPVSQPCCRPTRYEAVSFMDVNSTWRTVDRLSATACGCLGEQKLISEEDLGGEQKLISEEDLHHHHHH
- assay: blocking ELISA, antibody blocks 75 pM hARTN.mmh binding to plate-coated hGFRa3.hFc
- Method: Experiments were carried out using the following procedures. Plates were coated with hGFRa3.hFc at 2 μg/ml in PBS on a 96-well microtiter plate at 4° C. overnight for all three assays. […] After one hour of incubation at RT, the wells were washed with PBST, and plate-bound ARTN was detected with an anti-penta-His antibody conjugated with horseradish peroxidase (HRP) (Qiagen). […] Binding data were analyzed using a sigmoidal dose-response model within Prism™ software (GraphPad). […]

binder	% Blocking with 100 nM Ab (%)
H4H33349P (antibody, human IgG4 S228P, kappa, V domains shown, Fully human antibody; also called Artemin mAb; anti-ARTN antibody) VH: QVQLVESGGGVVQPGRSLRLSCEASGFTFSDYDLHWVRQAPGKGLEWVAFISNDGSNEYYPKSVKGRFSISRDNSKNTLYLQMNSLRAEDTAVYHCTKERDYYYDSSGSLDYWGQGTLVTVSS VL: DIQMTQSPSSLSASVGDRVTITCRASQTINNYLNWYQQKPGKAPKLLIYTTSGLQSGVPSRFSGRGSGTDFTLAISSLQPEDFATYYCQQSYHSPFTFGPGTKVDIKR	95
H4H33335P (antibody, human IgG4 S228P, kappa, V domains shown, Fully human antibody; also called Artemin mAb; anti-ARTN antibody) VH: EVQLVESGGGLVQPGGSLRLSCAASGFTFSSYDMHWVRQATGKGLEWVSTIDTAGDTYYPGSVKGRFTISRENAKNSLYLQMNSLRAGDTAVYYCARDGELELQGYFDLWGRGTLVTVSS VL: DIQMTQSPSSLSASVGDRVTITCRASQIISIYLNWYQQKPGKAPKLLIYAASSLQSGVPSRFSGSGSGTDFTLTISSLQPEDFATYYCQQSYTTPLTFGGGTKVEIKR	65
H4H33331P (antibody, human IgG4 S228P, kappa, V domains shown, Fully human antibody (human variable and constant domains) from a VELOCIMMUNE mouse; also called Artemin mAb; anti-ARTN antibody) VH: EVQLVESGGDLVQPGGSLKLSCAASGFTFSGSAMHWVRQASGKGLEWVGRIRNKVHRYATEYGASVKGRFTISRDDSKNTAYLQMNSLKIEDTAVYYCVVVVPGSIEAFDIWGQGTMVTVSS VL: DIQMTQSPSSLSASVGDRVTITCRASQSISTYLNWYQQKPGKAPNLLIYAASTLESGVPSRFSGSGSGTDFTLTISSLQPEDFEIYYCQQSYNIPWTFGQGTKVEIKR	88
H4H33336P (antibody, human IgG4 S228P, kappa, V domains shown, Fully human antibody; also called Artemin mAb; anti-ARTN antibody) VH: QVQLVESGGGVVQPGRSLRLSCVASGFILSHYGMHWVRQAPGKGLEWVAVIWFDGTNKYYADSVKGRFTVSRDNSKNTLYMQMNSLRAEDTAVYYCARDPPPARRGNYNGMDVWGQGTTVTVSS VL: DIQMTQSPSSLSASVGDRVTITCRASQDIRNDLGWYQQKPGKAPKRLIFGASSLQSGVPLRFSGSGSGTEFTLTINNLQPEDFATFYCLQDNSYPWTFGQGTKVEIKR	93
